Parameter: abundance fitness. Scope: all listed entries.
B1: Far upstream element-binding protein 3, residues 75 to 150; numbered along this chain, Q96I24 (parent)
chain: RTVITEEFKVPDKMVGFIIGRGGEQISRIQAESGCKIQIASESSGIPERPCVLTGTPESIEQAKRLLGQIVDRCRN

Variants of: B1
Test: abundance fitness (aPCA) (normalised: wild type 0, dead -1); higher = more abundant; growth selection in yeast, the domain comes from the species named
Settings: Homo sapiens
Response field accepts a number only; no unit should be typed.

Task: Form field: reported abundance fitness of K64Y
Output: -0.505

Task: Entry E7H please
Output: -0.002

Task: Likewise for N76H ?
Output: -0.1

Task: What about this variant? I37P
Output: -0.609

Task: Likewise for C74N ?
Output: -0.007

Task: Queued: Q38W
Output: -0.107

Task: Same for K36V
Output: -0.101

Task: Now the variant R1M
Output: 0.029
